// data source = patent US20210032312A1

Target: T1, human CD8A on primary human CD8+ T cells (human, UniProt P01732 22-235)
T1 construct: whole, on cells; also called Human T-cells; CD8 alpha
T1 sequence (P01732 22-235): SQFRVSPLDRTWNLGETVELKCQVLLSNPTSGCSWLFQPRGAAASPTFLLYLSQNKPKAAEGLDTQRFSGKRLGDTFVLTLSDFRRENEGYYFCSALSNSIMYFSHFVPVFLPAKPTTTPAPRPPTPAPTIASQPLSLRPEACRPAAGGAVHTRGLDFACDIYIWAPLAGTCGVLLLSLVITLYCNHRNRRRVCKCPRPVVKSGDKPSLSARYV
Experiment: MSD-CAT equilibrium cell binding, primary human CD8 T cells
Result Type: Kd (nM)
The reply should be a number in nM, with the unit left off.

Field: example entries. Status: answers known.
{"Binder": "CD8S365 (designed binder, P282ER9P1360_C8 with E54C; the entry holds the mutation) LPAPKNLVVSRVTEDSARLSWTAPDAAFDSFGILYYEPVDSGEAITLPVPGSCRSYDLTGLKPGTEYWVVITGVKGGAPSTPLGTIFTT", "Kd / nM": 0.167}
{"Binder": "CD8S368 (designed binder, P282DR9P1359_F5 with E54C; the entry holds the mutation) LPAPKNLVVSRVTEDSARLSWTAPDAAFDSFQIAYPEWPPPGEAIVLTVPGSCRSYDLTGLKPGTEYFVIIQGVKGGVESWPLSAIFTT", "Kd / nM": 0.459}

Now turn to the next binder.
Suppose we examine the binder CD8S366 (designed binder, P282DR9P1359_C5 with E54C; the entry holds the mutation) LPAPKNLVVSRVTEDSARLSWTAPDAAFDSFWITYPEWPDPGGEAIVLTVPGSCRSYDLTGLKPGTEYFVVIYGVKGGEIYSPLSAIFTT ; what Kd value has been reported?
0.123
